Numbers sourced from patent US20100316529A1.

Entries annotated with measured MBC, minimum concentration required to kill an entire population
System: S. xylosus
Test: EDTA salt dilution test, MIC/MBC
Format: cell-based
Conditions: Exhibit A1
Give a bare numeral; the unit mg/mL is implied.

Some solved cases for reference:
Enquiry: // MBC, minimum concentration required to kill an entire population lookup, key: O=C([O-])CN(CCN(CC(=O)O)CC(=O)O)CC(=O)[O-].[K+].[K+] [Dipotassium EDTA]
Return: 6

Enquiry: // MBC, minimum concentration required to kill an entire population lookup, key: O=C([O-])CN(CCN(CC(=O)[O-])CC(=O)[O-])CC(=O)[O-].[Na+].[Na+].[Na+].[Na+] [Tetrasodium EDTA]
Return: 25

Please find the next molecule below.
Enquiry: // MBC, minimum concentration required to kill an entire population lookup, key: N.N.O=C(O)CN(CCN(CC(=O)O)CC(=O)O)CC(=O)O [Diammonium EDTA]
Return: 4

----------
Entries annotated with measured MIC, minimum concentration required to inhibit growth
Test system: Cornyeform amycolatum
Assay: EDTA salt dilution test, MIC/MBC
Type: cell-based
Details: Exhibit A2

Some solved cases for reference:
Enquiry: Value wanted: MIC, minimum concentration required to inhibit growth (Cornyeform amycolatum) of entry "N.N.O=C(O)CN(CCN(CC(=O)O)CC(=O)O)CC(=O)O"
Return: <500 mg/L

Enquiry: Value wanted: MIC, minimum concentration required to inhibit growth (Cornyeform amycolatum) of entry "O=C([O-])CN(CCN(CC(=O)O)CC(=O)O)CC(=O)[O-].[K+].[K+]"
Return: <500 mg/L

Enquiry: Value wanted: MIC, minimum concentration required to inhibit growth (Cornyeform amycolatum) of entry O=C([O-])CN(CCN(CC(=O)[O-])CC(=O)[O-])CC(=O)[O-].[Fe+3].[Na+] [Ferric-sodium salt EDTA]
Return: 10000 mg/L

Enquiry: Value wanted: MIC, minimum concentration required to inhibit growth (Cornyeform amycolatum) of entry O=C([O-])CN(CCN(CC(=O)[O-])CC(=O)[O-])CC(=O)[O-].[Na+].[Na+].[Na+].[Na+] [Tetrasodium EDTA]
Return: <500 mg/L

Please find the next molecule below.
Enquiry: Value wanted: MIC, minimum concentration required to inhibit growth (Cornyeform amycolatum) of entry O=C([O-])CN(CCN(CC(=O)[O-])CC(=O)[O-])CC(=O)[O-].[Mg+2].[Na+].[Na+] [Magnesium disodium EDTA]
Return: <500 mg/L

----------
Entries annotated with measured MBC, minimum concentration required to kill an entire population
System: Ent. cloacae
Test: EDTA salt dilution test, MIC/MBC
Format: cell-based
Settings: three entries, Exhibit A1

Enquiry: // MBC, minimum concentration required to kill an entire population lookup, key: O=C([O-])CN(CCN(CC(=O)[O-])CC(=O)[O-])CC(=O)[O-].[Fe+3].[Na+] [Ferric-sodium salt EDTA]
Return: >15 mg/mL

Enquiry: // MBC, minimum concentration required to kill an entire population lookup, key: O=C([O-])CN(CCN(CC(=O)[O-])CC(=O)[O-])CC(=O)[O-].[Mg+2].[Na+].[Na+] [Magnesium disodium EDTA]
Return: >30 mg/mL

Enquiry: // MBC, minimum concentration required to kill an entire population lookup, key: N.N.O=C(O)CN(CCN(CC(=O)O)CC(=O)O)CC(=O)O [Diammonium EDTA]
Return: >10 mg/mL

Please find the next compound below.
Enquiry: // MBC, minimum concentration required to kill an entire population lookup, key: O=C([O-])CN(CCN(CC(=O)[O-])CC(=O)[O-])CC(=O)[O-].[Na+].[Na+].[Na+].[Na+] [Tetrasodium EDTA]
Return: 20 mg/mL

----------
Tested on: Steno. maltophilia
Test: EDTA salt dilution test, MIC/MBC
Type: cell-based
Conditions: Exhibit A2
value_kind: MIC, minimum concentration required to inhibit growth (µg/mL)
Give a bare numeral; the unit µg/mL is implied.

Some solved cases for reference:
Enquiry: // MIC, minimum concentration required to inhibit growth lookup, key: O=C([O-])CN(CCN(CC(=O)[O-])CC(=O)[O-])CC(=O)[O-].[Cu+2].[Na+].[Na+] [Cupric disodium EDTA]
Return: 6000

Enquiry: // MIC, minimum concentration required to inhibit growth lookup, key: O=C([O-])CN(CCN(CC(=O)[O-])CC(=O)[O-])CC(=O)[O-].[Fe+3].[Na+] [Ferric-sodium salt EDTA]
Return: 10000

Enquiry: // MIC, minimum concentration required to inhibit growth lookup, key: "N.N.O=C(O)CN(CCN(CC(=O)O)CC(=O)O)CC(=O)O"
Return: 1000

Further cases:
Enquiry: // MIC, minimum concentration required to inhibit growth lookup, key: O=C([O-])CN(CCN(CC(=O)[O-])CC(=O)[O-])CC(=O)[O-].[Na+].[Na+].[Na+].[Na+] [Tetrasodium EDTA]
Return: 1000

----------
Tested on: S. capitis
Assay: EDTA salt dilution test, MIC/MBC
Type: cell-based
Conditions: two entries, Exhibit A2
value_kind: MIC, minimum concentration required to inhibit growth

Some solved cases for reference:
Enquiry: // MIC, minimum concentration required to inhibit growth lookup, key: "O=C([O-])CN(CCN(CC(=O)O)CC(=O)O)CC(=O)[O-].[K+].[K+]"
Return: <500 µg/mL

Enquiry: // MIC, minimum concentration required to inhibit growth lookup, key: O=C([O-])CN(CCN(CC(=O)[O-])CC(=O)[O-])CC(=O)[O-].[Cu+2].[Na+].[Na+] [Cupric disodium EDTA]
Return: <500 µg/mL

Enquiry: // MIC, minimum concentration required to inhibit growth lookup, key: O=C([O-])CN(CCN(CC(=O)[O-])CC(=O)[O-])CC(=O)[O-].[Fe+3].[Na+] [Ferric-sodium salt EDTA]
Return: >20000 µg/mL

Further cases:
Enquiry: // MIC, minimum concentration required to inhibit growth lookup, key: "N.N.O=C(O)CN(CCN(CC(=O)O)CC(=O)O)CC(=O)O"
Return: <500 µg/mL

----------
Tested on: Kleb. pnemoniae
Assay: EDTA salt dilution test, MIC/MBC
Assay type: cell-based
Details: two entries, Exhibit A1
value_kind: MBC, minimum concentration required to kill an entire population

Some solved cases for reference:
Enquiry: // MBC, minimum concentration required to kill an entire population lookup, key: O=C([O-])CN(CCN(CC(=O)O)CC(=O)O)CC(=O)[O-].[K+].[K+] [Dipotassium EDTA]
Return: 15 mg/mL

Enquiry: // MBC, minimum concentration required to kill an entire population lookup, key: O=C([O-])CN(CCN(CC(=O)[O-])CC(=O)[O-])CC(=O)[O-].[Mg+2].[Na+].[Na+] [Magnesium disodium EDTA]
Return: >30 mg/mL

Further cases:
Enquiry: // MBC, minimum concentration required to kill an entire population lookup, key: N.N.O=C(O)CN(CCN(CC(=O)O)CC(=O)O)CC(=O)O [Diammonium EDTA]
Return: >10 mg/mL

Enquiry: // MBC, minimum concentration required to kill an entire population lookup, key: O=C([O-])CN(CCN(CC(=O)[O-])CC(=O)[O-])CC(=O)[O-].[Fe+3].[Na+] [Ferric-sodium salt EDTA]
Return: >15 mg/mL

Enquiry: // MBC, minimum concentration required to kill an entire population lookup, key: O=C([O-])CN(CCN(CC(=O)[O-])CC(=O)[O-])CC(=O)[O-].[Cu+2].[Na+].[Na+] [Cupric disodium EDTA]
Return: >30 mg/mL

Enquiry: // MBC, minimum concentration required to kill an entire population lookup, key: O=C([O-])CN(CCN(CC(=O)[O-])CC(=O)[O-])CC(=O)[O-].[Na+].[Na+].[Na+].[Na+] [Tetrasodium EDTA]
Return: 15 mg/mL

----------
System: Proteus mirabilis
Experiment: EDTA salt dilution test, MIC/MBC
Format: cell-based
Conditions: two entries, Exhibit A2
value_kind: MIC, minimum concentration required to inhibit growth

Enquiry: // MIC, minimum concentration required to inhibit growth lookup, key: "N.N.O=C(O)CN(CCN(CC(=O)O)CC(=O)O)CC(=O)O"
Return: <500 µg/mL

Further cases:
Enquiry: // MIC, minimum concentration required to inhibit growth lookup, key: O=C([O-])CN(CCN(CC(=O)[O-])CC(=O)[O-])CC(=O)[O-].[Fe+3].[Na+] [Ferric-sodium salt EDTA]
Return: >15000 µg/mL

Enquiry: // MIC, minimum concentration required to inhibit growth lookup, key: "O=C([O-])CN(CCN(CC(=O)O)CC(=O)O)CC(=O)[O-].[K+].[K+]"
Return: <500 µg/mL

Enquiry: // MIC, minimum concentration required to inhibit growth lookup, key: O=C([O-])CN(CCN(CC(=O)[O-])CC(=O)[O-])CC(=O)[O-].[Mg+2].[Na+].[Na+] [Magnesium disodium EDTA]
Return: >30000 µg/mL

Enquiry: // MIC, minimum concentration required to inhibit growth lookup, key: O=C([O-])CN(CCN(CC(=O)[O-])CC(=O)[O-])CC(=O)[O-].[Na+].[Na+].[Na+].[Na+] [Tetrasodium EDTA]
Return: 1000 µg/mL

Enquiry: // MIC, minimum concentration required to inhibit growth lookup, key: O=C([O-])CN(CCN(CC(=O)[O-])CC(=O)[O-])CC(=O)[O-].[Cu+2].[Na+].[Na+] [Cupric disodium EDTA]
Return: 6000 µg/mL
